molecular target: PPARα (Mus musculus)
Sequence (P23204 whole entry): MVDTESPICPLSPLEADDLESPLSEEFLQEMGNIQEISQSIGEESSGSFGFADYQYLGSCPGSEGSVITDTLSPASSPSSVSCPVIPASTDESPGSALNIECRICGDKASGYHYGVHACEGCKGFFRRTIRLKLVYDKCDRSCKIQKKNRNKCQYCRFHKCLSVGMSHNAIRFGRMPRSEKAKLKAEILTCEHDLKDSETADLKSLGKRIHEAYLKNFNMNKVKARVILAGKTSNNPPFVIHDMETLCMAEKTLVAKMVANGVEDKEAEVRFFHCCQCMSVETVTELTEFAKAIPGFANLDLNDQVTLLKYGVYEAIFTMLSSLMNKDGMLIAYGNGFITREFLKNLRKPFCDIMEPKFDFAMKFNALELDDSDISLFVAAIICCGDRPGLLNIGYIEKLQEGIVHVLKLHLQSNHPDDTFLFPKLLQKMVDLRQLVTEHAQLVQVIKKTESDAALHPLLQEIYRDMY
quantity kind: Kd (µM)
I only need the number, in µM, no unit after it.

## Input GET /values?readout=Kd&item= C=CC1=C(C)/C(=C/c2[nH]c(Cc3[nH]c(/C=C4\NC(=O)C(C)=C4C=C)c(C)c3CCC(=O)O)c(CCC(=O)O)c2C)NC1=O
## Output 5.13

====

biological target: bovine serum albumin (BSA) (Bos taurus); test: bilirubin autofluorescence titration (excitation […] nm)
Sequence (P02769 25-607): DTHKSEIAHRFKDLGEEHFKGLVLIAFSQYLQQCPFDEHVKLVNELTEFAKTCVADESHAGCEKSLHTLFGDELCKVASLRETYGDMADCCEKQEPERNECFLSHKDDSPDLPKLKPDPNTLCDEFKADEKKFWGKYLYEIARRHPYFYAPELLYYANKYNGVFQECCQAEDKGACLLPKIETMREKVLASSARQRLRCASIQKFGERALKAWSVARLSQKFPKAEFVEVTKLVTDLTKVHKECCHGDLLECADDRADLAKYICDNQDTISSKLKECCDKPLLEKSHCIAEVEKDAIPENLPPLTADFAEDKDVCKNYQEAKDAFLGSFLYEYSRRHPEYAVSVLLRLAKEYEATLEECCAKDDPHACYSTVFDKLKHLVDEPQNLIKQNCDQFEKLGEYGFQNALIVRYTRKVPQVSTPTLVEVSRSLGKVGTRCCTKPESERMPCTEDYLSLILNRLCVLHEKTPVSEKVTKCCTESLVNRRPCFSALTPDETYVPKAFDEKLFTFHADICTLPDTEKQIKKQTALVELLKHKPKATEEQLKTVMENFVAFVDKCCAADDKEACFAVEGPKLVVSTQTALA
quantity kind: Kd
# do not omit the unit; it follows the number

## Input Suppose we examine the compound C=CC1=C(C)/C(=C/c2[nH]c(Cc3[nH]c(/C=C4\NC(=O)C(C)=C4C=C)c(C)c3CCC(=O)O)c(CCC(=O)O)c2C)NC1=O [BR, bilirubin] ; what Kd value has been reported?
## Output 11.1 µM

The reported numbers originate from paper PMC8157031.
